From: paper PMC7443514

# System name: purified SARM1 TIR domain (Homo sapiens, UniProt Q6SZW1)
# Sequence (Q6SZW1 561-724): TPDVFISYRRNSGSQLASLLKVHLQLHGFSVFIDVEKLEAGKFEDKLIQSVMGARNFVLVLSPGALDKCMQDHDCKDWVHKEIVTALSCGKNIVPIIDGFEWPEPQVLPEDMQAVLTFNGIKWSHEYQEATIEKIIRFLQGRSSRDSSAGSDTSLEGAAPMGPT
# Experiment description: Dose response, ENAD assay, purified TIR domain
# Type: biochemical
# Condition context: purified TIR domain (20 μM), 500 μM ENAD
pIC50: −log10 of the molar value.
Measured attribute: pIC50

Compound	Measured attribute	Recorded number
[Cl-].[Cl-].[Zn+2] [Zinc Chloride, Zinc chloride]	pIC50	5.00
